As shown below, each of these molecules has a reported IC50 ± SD, T98G value.
Test system: T98G (glioblastoma)
TEST DESCRIPTION: MTT cytotoxicity assay on T98G cells
Format: cell-based
EXPERIMENTAL CONTEXT: MTT, 24 h incubation

[
  {
    "STRUCTURE SMILES": "O=C1CCN1c1cc2ccccc2cn1.O=C1CCN1c1cc2ccccc2cn1.[Cl][Cu][Cl]",
    "IC50 ± SD, T98G [µg/mL]": 8.25
  },
  {
    "STRUCTURE SMILES": "CN1CCN(c2cc3ccccc3cn2)C1=O.[Cl][Cu][Cl]",
    "IC50 ± SD, T98G [µg/mL]": 10.55
  },
  {
    "STRUCTURE SMILES": "O=C1NCCN1c1cc2ccccc2cn1.O=C1NCCN1c1cc2ccccc2cn1.[Cl][Cu][Cl]",
    "IC50 ± SD, T98G [µg/mL]": 6.97
  },
  {
    "STRUCTURE SMILES": "CCN1CCN(c2cc3ccccc3cn2)C1=O.[Cl][Cu][Cl]",
    "IC50 ± SD, T98G [µg/mL]": 9.27
  }
]
